Measured values drawn from PubChem BioAssay (NCI) for this set.

# Test system: T-47D breast
# measurement description: NCI-60 one-dose screen, 48 h (100 = growth as untreated, 0 = no growth, -100 = all killed)
# test context: 10 µM
About 83,000 compounds went through this panel and 20% of them were active in at least one assay; those are over-represented in the sample as a whole.
Checkbox rule: growth lower than 30% = satisfied; growth not lower than 30% = not satisfied.

                                    compound  class_assignment
 0  CS(=O)(=O)Nc1ccc(Nc2c3ccccc3nc3cc(N)ccc23)cc1         satisfied
 1  COc1ccccc1CNCCN1C(=O)c2ccc3c4c(ccc(c24)C1=O)C(=O)N(CCNCc1ccccc1OC)C3=O         satisfied
 2  O=C(Cc1csc2nc(-c3ccc(Cl)cc3)cn12)N/N=C/c1ccccc1O     not satisfied
 3  CCN1CCN(c2nc3ccccc3c3c(=O)c4ccccc4sc23)CC1     not satisfied
 4           CC(C)(C)c1cc(Br)cc(C(C)(C)C)c1O     not satisfied
 5  COc1ccc(C2=NN(C(=O)c3ccc(S(C)(=O)=O)cc3)C(c3ccc(OC)c(OC)c3)C2)c(OC)c1 (centres undefined)     not satisfied
 6  N#CCCN1C/C(=C/c2ccc(Br)cc2)C(=O)/C(=C/c2ccc(Br)cc2)C1         satisfied
 7  COc1ccc(-c2nc3sc(-c4ccc(OC)cc4)c(-c4ccc(OC)cc4)n3c2/C=C/c2ccc(C(C)C)cc2)cc1     not satisfied
 8  O=C(Nc1ccc(Cl)c([N+](=O)[O-])c1)Nc1nc2ccccc2s1     not satisfied
 9  Cn1c(C(N)=O)cc2c1-c1nc(Nc3ccccc3)ncc1CCC2     not satisfied
10  CCOC(=O)N1C/C(=C/c2ccc(Cl)cc2)C(=O)/C(=C/c2ccc(Cl)cc2)C1     not satisfied
11  COc1ccc(-c2nn(-c3cccc(NC(=O)c4cccc(C(F)(F)F)c4)c3)cc2-c2ccncc2)cc1Cl         satisfied
12  COc1ccc(-c2csc(NC(=O)CSc3nc(C)c(-c4ccccc4)n3Nc3ccccc3)n2)cc1         satisfied
13  Nc1ccc2c(c1)C1(CCC2)NC(=O)NC1=O (centres undefined)     not satisfied
14  Cc1nc2oc3ccccc3c(=O)c2cc1C(=O)NCc1ccccc1     not satisfied
15  C#Cc1ccc(-n2c(/C=C/c3ccc(Cl)c(F)c3)nc3ncccc3c2=O)cc1         satisfied
16  COc1ccc(-c2nc(-c3nc4ccc(OC)cc4[nH]3)cc3c2[nH]c2ccccc23)cc1         satisfied
17  CCC(=O)N1C/C(=C/c2ccc(Br)cc2)C(=O)/C(=C/c2ccc(Br)cc2)C1         satisfied
18               O=C(c1ccc(Cl)cc1Cl)N1CCOCC1     not satisfied
19    Fc1cc(C(F)(F)F)ccc1-c1cncnc1NC1CCCCCC1     not satisfied
20  CN(C)CC(O)c1ccc2cc(Br)c3ccccc3c2c1 (centres undefined)     not satisfied
21  Cn1c(N)c(N=Nc2ccc(S(=O)(=O)Nc3nccs3)cc2)c(=O)n(C)c1=O         satisfied
22  COc1ccc(-c2cc(-c3ccc(N(C)C)cc3)c(C#N)c(N3CCCC3)n2)cc1     not satisfied
23  O=C1ON=[N+](c2ccc(Cc3ccc([N+]4=NOC(=O)C4CN4CCOCC4)cc3)cc2)C1CN1CCOCC1 (centres undefined)     not satisfied
24  Cc1ccc(C(=O)N2C/C(=C/c3ccc(F)cc3)C(=O)/C(=C/c3ccc(F)cc3)C2)cc1     not satisfied
25  CS(=O)(=O)Nc1cccc(-c2cc(-c3ccccc3Cl)c(C#N)c(N)n2)c1     not satisfied
26  COC(=O)C(C(C[N+](=O)[O-])c1ccccc1)=P(c1ccccc1)(c1ccccc1)c1ccccc1 (centres undefined)     not satisfied
27            CCOC(=O)N/N=C\C(C)=N\NC(=O)OCC     not satisfied
28  COc1cc(-c2cc(/C=C/C(=O)c3ccc(Cl)c(Cl)c3)[nH]n2)cc(OC)c1OC     not satisfied
29  COc1ccc(-c2nsc3c2NC(=O)CC3c2ccc(F)cc2)cc1 (centres undefined)         satisfied
30  COC(=O)c1c(-c2ccccc2)csc1NC(=O)c1c(-c2ccccc2)noc1C     not satisfied
31  CN(C)Cc1cn(-c2ncc(-c3ccc(C(F)(F)F)cc3)c(NC3CCCCCC3)n2)nn1     not satisfied
32  COc1ccc2nc3ccccc3c(NCCNCC(C)O)c2c1 (centres undefined)         satisfied
33  COc1ccc(/C(=C2/O[C@@H]([C@H]3COC(C)(C)O3)[C@H]3OC(C)(C)O[C@@H]23)c2cc(OC)c(OC)c(OC)c2)cc1O     not satisfied
34  COc1ccc(S(=O)(=O)NCCCNc2nccc(-c3c(-c4ccc(F)cc4)nc4sccn34)n2)cc1         satisfied
35  Cc1nc2ccccc2c(N)c1-c1cc(C)c2c(C)nc3ccccc3c2n1         satisfied
36  COc1ccc(-c2nc(-c3nc4cc(Cl)c(Cl)cc4[nH]3)c3ccccn23)cc1     not satisfied
37  COc1ccc(-c2nn(-c3cccc(NC(=O)Nc4cccc(C(F)(F)F)c4)c3)cc2-c2ccncc2)cc1Cl         satisfied

---

# Test system: SNB-75 CNS
# measurement description: NCI-60 one-dose screen, 48 h (100 = growth as untreated, 0 = no growth, -100 = all killed)
# test context: 10 µM
This is part of a sample that, as a whole, favours compounds with a hit. Of some 83,000 tested, about 20% had one in any assay.
recorded endpoint: growth (%)

>>> df
                                   molecule  unit_descriptor  reading
0  COc1ccc2c(c1)N(CCO)C1=C(C(=O)OC1)C2c1ccccc1 (stereo not given)                %     14.6
1  Nc1c(C(=O)Nc2cccc3ccccc23)sc2nc3c(cc12)C(=O)CCC3                %     20.7
2  COc1ccc(/C=C/C(=O)Nc2ccc(-c3nc4ccc(OC)cc4s3)cc2)cc1                %      102
3  N#CCCN1C/C(=C/c2ccc(Br)cc2)C(=O)/C(=C/c2ccc(Br)cc2)C1                %     33.3
4  CC(C)N(CCNc1nc(C(Cl)(Cl)Cl)nc2cc(Cl)ccc12)C(C)C                %     8.33

---

# System: OVCAR-4 ovarian
# measurement description: NCI-60 one-dose screen, 48 h (100 = growth as untreated, 0 = no growth, -100 = all killed)
# test context: 10 µM
This is part of a sample that, as a whole, favours compounds with a hit. Of some 83,000 tested, about 20% had one in any assay.
List of growth values.

compound	unit descriptor	growth
CC(=O)n1c(-c2ccc(Cl)c(Cl)c2)cn(-c2ccc(Cl)cc2)c1=O	%	5.33
CS(=O)(=O)Nc1ccc(Nc2c3ccccc3nc3cc(N)ccc23)cc1	%	43.2
CCCCCCN1C(=O)C2=C(c3ccc(Cl)cc3)Nc3c(c(C)nn3-c3ccccc3)C2c2ccccc21 (stereo not given)	%	90.5
COc1cc(-c2cc(/C=C/C(=O)c3ccc(N)cc3)[nH]n2)cc(OC)c1OC	%	26.8
O=C(Cc1csc2nc(-c3ccc(Cl)cc3)cn12)N/N=C/c1ccccc1O	%	43.2
Cc1cc(Cl)nc(N(CCCNc2ccnc3cc(Cl)ccc23)Cc2cccs2)n1	%	11
Oc1[nH]c2ccc(Cl)cc2c1/C=c1/ccc2c(c1)N=C(c1cc(F)cc(F)c1)N=2	%	68.5
O=C(Nc1cccc(-n2cc(-c3ccncc3)c(-c3ccc(O)c(Cl)c3)n2)c1)c1cccc(C(F)(F)F)c1	%	51.2
CC(C)(Cl)CCC1=C(Cl)C(=O)c2ccccc2C1=O	%	11.5
CC1CN(Cc2ccccc2)C(=O)NC1=O (stereo not given)	%	123
N#CC1=C(Nc2ccccc2Cl)SC(c2ccccc2O)NC1=O (stereo not given)	%	111
O=c1c2ccccc2nc(SCCN2CCCCC2)n1CCc1ccccc1	%	86.7
COc1ccc(-c2nc3sccn3c2-c2nc3c([nH]2)C(=O)c2ccccc2C3=O)cc1	%	84.1
N#Cc1ncc(-c2ccc(C(F)(F)F)cc2)c(NCc2cc(C(F)(F)F)cc(C(F)(F)F)c2)n1	%	21
CN(C)Cc1cn(-c2ncc(-c3ccc(C(F)(F)F)cc3)c(NC3CCCCCC3)n2)nn1	%	79.9
COc1ccc(S(=O)(=O)Nc2c(/C=C\c3cc(OC)c(OC)c(OC)c3)ccc(OC)c2O)cc1	%	53
COc1ccc(OC)c(/C=C/c2nnc(Nc3ccc(Cl)cc3)o2)c1	%	-16
CCOC(=O)N1C/C(=C/c2ccc(OC)cc2)C(=O)/C(=C/c2ccc(OC)cc2)C1	%	58
O=C1/C(=C\c2ccc(F)cc2)CN(C(=O)c2ccccc2F)C/C1=C\c1ccc(F)cc1	%	-5.48
COc1ccc(-c2nc3ncccn3c2-c2nnc(-c3ccsc3C)o2)cc1	%	25.7
CN(C)C(=S)N/N=C\C=N/NC(=S)N(C)C	%	-36.5
CC1=C(N2CCOCC2)C(N2CCOCC2)=C(C)C(=O)C1=O	%	104
COc1cc(-c2nc(Nc3nc4ccccc4s3)[nH]c(=O)c2C#N)cc(OC)c1O	%	109
Cc1ccc2oc3nc(C)c(C(=O)NCc4ccccc4)cc3c(=O)c2c1	%	85.3
COc1cc(C)ccc1C(=O)c1ccc(C)cc1OC	%	63.1
C=C1c2c(C)nn(-c3ccc(OC)cc3)c2N(C)C23C[C@@H]1C1(C)c4c(C)nn(-c5ccc(OC)cc5)c4N(C)C(C)(C[C@H]12)C3 (stereo not given in full)	%	28.1
C=C(Cl)[C@@](Cl)(CBr)CC[C@@H](Br)C(C)(C)Cl	%	-37
COc1ccc(-c2cc(/C=C3\C(=O)Nc4ccc(OC)cc43)[nH]n2)cc1	%	79.8
CCN(CC)CCCOCCCNc1cc(OC)cc2cccnc12	%	26.6
C#Cc1ccc(-n2c(/C=C/c3ccc4ccccc4n3)nc3ncccc3c2=O)cc1	%	-62.4
CCCC#CCN(CC)CC	%	104
COc1cc(NC(=O)CSc2nc3ccccc3c(=O)n2CCc2ccccc2)cc(OC)c1OC	%	53.8
O=C1/C(=C\c2ccc(Br)cc2)CN(C(=O)c2ccccc2F)C/C1=C\c1ccc(Br)cc1	%	18.2
CCCCOC(=O)Oc1ccc(C(=O)Oc2ccc(OCC)cc2)cc1	%	87.9
COc1ccc(-c2nn(-c3cccc(NC(=O)Nc4ccccc4)c3)cc2-c2ccncc2)cc1Cl	%	41.4
O=C1N=NC2=C1c1c3ccccc3c(O)n1CC2	%	106
Cc1occc1-c1nnc(SCC(=O)c2ccc(NC(=O)CC(C)C)cc2)o1	%	122
COc1ccccc1CNCCN1C(=O)c2ccc3c4c(ccc(c24)C1=O)C(=O)N(CCNCc1ccccc1OC)C3=O	%	-99.7
O=C(C[P+](c1ccccc1)(c1ccccc1)c1ccccc1)C[P+](c1ccccc1)(c1ccccc1)c1ccccc1	%	-55.8
CCOCCOCCOCCOCCOCCOCCOCCOCCOCCO (tested in a mixture with another compound)	%	21.3
